System: Alopecurus myosuroides (ALOMY)
ASSAY PROCEDURE: Example A pre-emergence herbicidal activity, glasshouse pot test
Assay type: in vivo
ASSAY SETUP: 480 h, rate 250 g/ha, evaluated 20 days after spraying, read-out: Pre-emergence activity ALOMY (100=total damage to plant; 0=no damage to plant)
# if value of pest or weed control at 250 g/ha reaches 30%, tag rule met; if it stays below, tag rule not met

1) Cc1cc(-c2ccc(C)c(C3=C(O)C(C)(C)OC(C)(C)C3=O)c2)ccc1Cl = rule not met
2) CCc1ccc(-c2ccc(Cl)cc2)cc1C1=C(O)C(C)(C)[S+]([O-])C(C)(C)C1=O (stereo not shown) = rule not met
3) CCc1ccc(-c2ccc(Cl)cc2)cc1C1=C(O)C(C)(C)S(=O)(=O)C(C)(C)C1=O = rule met
4) Cc1ccc(-c2ccc(C(F)(F)F)cc2)cc1C1=C(O)C(C)(C)OC(C)(C)C1=O = rule met
5) CCc1ccc(-c2ccc(F)cc2)cc1C1=C(O)[C@@]2(C)CC[C@H](O2)C1=O = rule met
